System: α-isomaltosyl-transferring enzyme from Arthrobacter ramosus S1
Experiment: Specificity to transferring acceptor
Type: biochemical
Set-up: key: −: no saccharide transferred product was formed; ±: a saccharide-transferred product formed in an amount of less than one percent to the total sugars; +: a saccharide-transferred product was formed in an amount of over one percent but below 10% to the total sugars; ++: a saccharide-transferred product was formed in an amount of over 10% to the total sugars
Conditions: panose as saccharide donor, 10 units/g substrate, 3.2% (w/v), 30° C., pH 6.0, 24 hours
quantity: Product of transferring reaction, Enzyme of Strain S1

[[record]]
smiles_data = "OC[C@H]1O[C@@H]2O[C@H]3[C@H](O)[C@@H](O)[C@@H](O[C@H]4[C@H](O)[C@@H](O)[C@@H](O[C@H]5[C@H](O)[C@@H](O)[C@@H](O[C@H]6[C@H](O)[C@@H](O)[C@@H](O[C@H]7[C@H](O)[C@@H](O)[C@@H](O[C@H]8[C@H](O)[C@@H](O)[C@@H](O[C@H]9[C@H](O)[C@@H](O)[C@@H](O[C@H]1[C@H](O)[C@H]2O)O[C@@H]9CO)O[C@@H]8CO)O[C@@H]7CO)O[C@@H]6CO)O[C@@H]5CO)O[C@@H]4CO)O[C@@H]3CO"
val = "−"


----------
System: α-isomaltosyl-transferring enzyme from Bacillus globisporus C11
Assay: Influence of metal ions on enzyme activity
Format: biochemical
Details: 1 mM metal ion; enzyme of Strain C11
Hi! Just check whether Relative activity is below 90%. Below gives YES, equal or above gives NO.

[[record]]
smiles_data = "[Sr+2]"
system = "α-isomaltosyl-transferring enzyme from Bacillus globisporus C11"
qualitative_label = "NO"

[[record]]
smiles_data = "O=C(O)CN(CCN(CC(=O)O)CC(=O)O)CC(=O)O"
system = "α-isomaltosyl-transferring enzyme from Bacillus globisporus C11"
qualitative_label = "NO"

[[record]]
smiles_data = "[Zn+2]"
system = "α-isomaltosyl-transferring enzyme from Bacillus globisporus C11"
qualitative_label = "YES"

[[record]]
smiles_data = "[Pb+2]"
system = "α-isomaltosyl-transferring enzyme from Bacillus globisporus C11"
qualitative_label = "YES"

[[record]]
smiles_data = "[Mn+2]"
system = "α-isomaltosyl-transferring enzyme from Bacillus globisporus C11"
qualitative_label = "NO"

[[record]]
smiles_data = "[Hg+2]"
system = "α-isomaltosyl-transferring enzyme from Bacillus globisporus C11"
qualitative_label = "YES"

[[record]]
smiles_data = "[Cu+2]"
system = "α-isomaltosyl-transferring enzyme from Bacillus globisporus C11"
qualitative_label = "YES"


----------
Tested on: α-isomaltosyl-transferring enzyme from Bacillus globisporus C9
Experiment: Specificity to transferring acceptor
Assay type: biochemical
Set-up: key: −: no saccharide transferred product was formed; ±: a saccharide-transferred product formed in an amount of less than one percent to the total sugars; +: a saccharide-transferred product was formed in an amount of over one percent but below 10% to the total sugars; ++: a saccharide-transferred product was formed in an amount of over 10% to the total sugars
Settings: panose as saccharide donor, 10 units/g substrate, 3.2% (w/v), 30° C., pH 6.0, 24 hours
Description: Saccharides were tested as follows to examine whether they can be used as transferring acceptors for the α-isomaltosyl-transferring enzyme of the present invention. […]
quantity: Product of transferring reaction, Enzyme of Strain C9

[[record]]
molecule = "OC[C@H]1O[C@@H]2O[C@H]3[C@H](O)[C@@H](O)[C@@H](O[C@H]4[C@H](O)[C@@H](O)[C@@H](O[C@H]5[C@H](O)[C@@H](O)[C@@H](O[C@H]6[C@H](O)[C@@H](O)[C@@H](O[C@H]7[C@H](O)[C@@H](O)[C@@H](O[C@H]1[C@H](O)[C@H]2O)O[C@@H]7CO)O[C@@H]6CO)O[C@@H]5CO)O[C@@H]4CO)O[C@@H]3CO [α-Cyclodextrin, α-cyclodextrin]"
val = "−"

